test system: HRase; assay: Effect of various reagents such as enzyme inhibitors on HRase activity (residual activity); assay type: biochemical, Microbacterium liquefaciens AJ3912; details: relative to activity without reagent (100%); pre-incubation 0° C. 30 min pH 8.0, reaction pH 8.0, 30° C., 30 min; concentration in reaction: NEM 5 mM, CuSO4 2.5 mM, IAA 10 mM, EDTA 10 mM, Methanol 10% (v/v)
experimental readout: Residual Activity (%)
Please make sure the unit comes right after the number.

# molecule CCN1C(=O)C=CC1=O [NEM, N-ethylmaleimide] ; its Residual Activity (%) = 0%

====

system: HRase; experiment: Effect of various reagents such as enzyme inhibitors on HRase activity (residual activity); assay type: biochemical, Microbacterium liquefaciens AJ3912; settings: relative to activity without reagent (100%); pre-incubation 0° C. 30 min pH 8.0, reaction pH 8.0, 30° C., 30 min; concentration in reaction: NEM 5 mM, CuSO4 2.5 mM, IAA 10 mM, EDTA 10 mM, Methanol 10% (v/v)
experimental readout: Residual Activity (%)
Your answer should be a plain number; it is taken to be in %.

Examples with answers:
* CO [Methanol, methanol] | 99
* O=S(=O)([O-])[O-].[Cu+2] [CuSO4] | 0
* O=C(O)CI [IAA, monoiodoacetic acid] | 0

# compound O=C(O)CN(CCN(CC(=O)O)CC(=O)O)CC(=O)O [EDTA, ethylenediaminetetraacetic acid] ; its Residual Activity (%) = 86
